Measured target: UniProt:P19099
Measurement description: G-402 cellular enzyme assay, human CYP11B2 (aldosterone release)
Type: cell-based
Condition context: G-402 cells expressing human CYP11B2, 1 μM Deoxycorticosterone
pEC50: −log10 of the molar value.
Reported pEC50 values for a set of molecules

{"Molecule": "CS(=O)(=O)N[C@@H]1CCCc2c(-c3ccc(C(F)(F)F)cc3F)cncc21 [Example 76]", "pEC50": 6.93}
{"Molecule": "C[C@@H](O)C(=O)NC1CCc2c(-c3ccc(C(F)(F)F)cc3)cncc21 (single isomer, unassigned; (-)) [Example 53]", "pEC50": 5.04}
{"Molecule": "OC1CCCc2c(-c3ccc(C(F)(F)F)cc3)cncc21 (single isomer, unassigned; (+)) [Example 106]", "pEC50": 8.34}
{"Molecule": "COC1CCCc2c(-c3ccc(C#N)cc3)cncc21 (racemic) [Example 13]", "pEC50": 8.00}

* * *

Measured target: human CYP11B1 (Homo sapiens (Human), UniProt P15538)
Sequence (P15538 25-503): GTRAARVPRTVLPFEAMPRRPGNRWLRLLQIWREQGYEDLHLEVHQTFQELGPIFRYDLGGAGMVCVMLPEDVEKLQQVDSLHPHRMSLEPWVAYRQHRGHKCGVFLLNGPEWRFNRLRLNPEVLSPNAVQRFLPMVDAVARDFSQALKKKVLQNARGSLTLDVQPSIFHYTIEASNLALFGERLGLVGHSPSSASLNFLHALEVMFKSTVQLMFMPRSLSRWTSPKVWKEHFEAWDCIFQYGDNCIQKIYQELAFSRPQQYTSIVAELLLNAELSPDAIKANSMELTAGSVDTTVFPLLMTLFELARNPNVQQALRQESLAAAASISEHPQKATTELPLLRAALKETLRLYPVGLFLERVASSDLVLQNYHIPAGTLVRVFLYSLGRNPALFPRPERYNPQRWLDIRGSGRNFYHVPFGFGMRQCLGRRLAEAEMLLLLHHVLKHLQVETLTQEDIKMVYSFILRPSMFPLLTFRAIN
Measurement description: G-402 cellular enzyme assay, human CYP11B1 (cortisol release)
Condition context: G-402 cells expressing human CYP11B1, 1 μM Deoxycortisol
pEC50: −log10 of the molar value.
Label scheme for pEC50: lower than 6 is rule not met, 6 and above is rule met.

{"Compound": "CCC(=O)OC1CCc2c(-c3ccc(C(F)(F)F)c(F)c3)cncc21 (racemic) [Example 92]", "Cat": "rule met"}
{"Compound": "CCC(=O)NC1CCCc2c(-c3ccc(Cl)c(F)c3)cncc21 (single isomer, unassigned; (-)) [Example 37]", "Cat": "rule not met"}
{"Compound": "CCS(=O)(=O)NC1CCc2c(-c3ccc(C(F)(F)F)cc3)cncc21 (single isomer, unassigned; (+)) [Example 66]", "Cat": "rule not met"}
{"Compound": "CCC(=O)N[C@@H]1c2cncc(-c3ccc(C(F)(F)F)cc3)c2CC[C@H]1C (single isomer, unassigned) [Example 67]", "Cat": "rule not met"}
{"Compound": "CCC(=O)NC1CCc2c(-c3ccc(F)c(C)c3)cncc21 (single isomer, unassigned; (+)) [Example 60]", "Cat": "rule met"}
{"Compound": "CCC(=O)NC1CCCc2c(-c3ccc(F)c(C)c3)cncc21 (single isomer, unassigned; (+)) [Example 29]", "Cat": "rule met"}
{"Compound": "C[C@@H](O)C(=O)NC1CCCc2c(-c3ccc(C(F)(F)F)cc3)cncc21 (stereo partly shown) [Example 46]", "Cat": "rule not met"}
{"Compound": "Cc1ccc(C2(O)CCCc3c(-c4ccc(C#N)cc4)cncc32)cc1C (racemic) [Example 14]", "Cat": "rule met"}
{"Compound": "C[C@@H](O)C(=O)NC1CCc2c(-c3ccc(C(F)(F)F)cc3)cncc21 (stereo partly shown) [Example 52]", "Cat": "rule not met"}
{"Compound": "CCC(=O)NC1CCCc2c(-c3ccc(Cl)cc3)cncc21 (single isomer, unassigned; (-)) [Example 25]", "Cat": "rule not met"}
{"Compound": "CCC(=O)N[C@@H]1CCCc2c(-c3ccc(C(F)(F)F)cc3C3CC3)cncc21 [Example 107]", "Cat": "rule not met"}
{"Compound": "CCC(=O)NC1CCCc2c(-c3ccc(C(F)(F)F)cc3F)cncc21 (single isomer, unassigned; (-)) [Example 34]", "Cat": "rule not met"}
{"Compound": "CCC(=O)NC1CCc2c(-c3ccc(C(F)(F)F)cc3F)cncc21 (racemic) [Example 61]", "Cat": "rule not met"}
{"Compound": "CC(=O)N[C@@H]1CCCc2c(-c3ccc(C(F)(F)F)cc3)cncc21 [Example 77]", "Cat": "rule not met"}
{"Compound": "CCCS(=O)(=O)NC1CCc2c(-c3ccc(C(F)(F)F)cc3)cncc21 (racemic) [Example 96]", "Cat": "rule not met"}
{"Compound": "CCC(=O)NC1CCc2c(-c3ccc(C(F)(F)F)cc3F)cncc21 (single isomer, unassigned; (+)) [Example 63]", "Cat": "rule not met"}
{"Compound": "N#Cc1ccc(-c2cncc3c2CCCC3O)cc1 (racemic) [Example 11]", "Cat": "rule met"}
{"Compound": "CCNC(=O)NC1CCCc2c(-c3ccc(C#N)cc3)cncc21 (racemic) [Example 4]", "Cat": "rule not met"}
{"Compound": "N#Cc1ccc(-c2cncc3c2CCCC3N)cc1 (racemic) [Example 1]", "Cat": "rule met"}
{"Compound": "CCC(=O)NC1CCCc2c(-c3ccc(C#N)cc3)cncc21 (single isomer, unassigned; (+)) [Example 7]", "Cat": "rule met"}
{"Compound": "CCC(=O)NC1CCc2c(-c3ccc(Cl)c(F)c3)cncc21 (racemic) [Example 55]", "Cat": "rule met"}
{"Compound": "OC1CCCc2c(-c3ccc(C(F)(F)F)cc3)cncc21 (single isomer, unassigned; (+)) [Example 106]", "Cat": "rule met"}

* * *

Measured target: CYP11B2 (Homo sapiens (Human), UniProt P19099)
Sequence (P19099 25-503): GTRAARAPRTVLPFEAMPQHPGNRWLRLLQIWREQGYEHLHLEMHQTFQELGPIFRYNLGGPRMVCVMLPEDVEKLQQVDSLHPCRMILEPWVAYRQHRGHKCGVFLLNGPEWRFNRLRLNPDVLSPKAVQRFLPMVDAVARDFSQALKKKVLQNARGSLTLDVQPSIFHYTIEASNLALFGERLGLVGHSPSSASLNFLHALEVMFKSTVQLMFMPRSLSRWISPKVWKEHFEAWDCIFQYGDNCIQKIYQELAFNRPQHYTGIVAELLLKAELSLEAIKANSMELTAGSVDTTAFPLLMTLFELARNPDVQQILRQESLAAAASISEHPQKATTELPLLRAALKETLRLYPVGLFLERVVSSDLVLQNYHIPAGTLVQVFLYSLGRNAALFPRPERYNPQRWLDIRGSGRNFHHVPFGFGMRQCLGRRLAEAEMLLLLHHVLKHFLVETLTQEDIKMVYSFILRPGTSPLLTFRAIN
Measurement description: G-402 cellular enzyme assay, human CYP11B2 (aldosterone release)
Condition context: G-402 cells expressing human CYP11B2, 1 μM Deoxycorticosterone

{"Compound": "CCC(=O)NC1CCCc2c(-c3ccc(Cl)c(F)c3)cncc21 (single isomer, unassigned; (+)) [Example 38]", "Measured target": "CYP11B2 (Homo sapiens (Human), UniProt P19099)", "Output unit": "nM", "EC50": 7}
{"Compound": "CCNC(=O)OC1CCCc2c(-c3ccc(C#N)cc3)cncc21 (racemic)", "Measured target": "CYP11B2 (Homo sapiens (Human), UniProt P19099)", "Output unit": "nM", "EC50": 25}
{"Compound": "CCC(=O)NC1CCc2c(-c3ccc(C#N)cc3)cncc21 (single isomer, unassigned; (-)) [Example 18]", "Measured target": "CYP11B2 (Homo sapiens (Human), UniProt P19099)", "Output unit": "nM", "EC50": 879}
{"Compound": "CCC(=O)NC1CCCc2c(-c3ccc(Cl)cc3)cncc21 (racemic) [Example 24]", "Measured target": "CYP11B2 (Homo sapiens (Human), UniProt P19099)", "Output unit": "nM", "EC50": 31}
{"Compound": "CCS(=O)(=O)NC1CCc2c(-c3ccc(C(F)(F)F)c(F)c3)cncc21 (racemic) [Example 71]", "Measured target": "CYP11B2 (Homo sapiens (Human), UniProt P19099)", "Output unit": "nM", "EC50": 242}
{"Compound": "Cc1ccc(C2(O)CCCc3c(-c4ccc(C#N)cc4)cncc32)cc1C (single isomer, unassigned; (-)) [Example 16]", "Measured target": "CYP11B2 (Homo sapiens (Human), UniProt P19099)", "Output unit": "nM", "EC50": 72}
{"Compound": "CCC(=O)NC1CCc2c(-c3ccc(C#N)cc3)cncc21 (racemic) [Example 17]", "Measured target": "CYP11B2 (Homo sapiens (Human), UniProt P19099)", "Output unit": "nM", "EC50": 22}
{"Compound": "OC1CCc2c(-c3ccc(C(F)(F)F)c(F)c3)cncc21 (racemic)", "Measured target": "CYP11B2 (Homo sapiens (Human), UniProt P19099)", "Output unit": "nM", "EC50": 5.2}
{"Compound": "CCOC(=O)NC1CCCc2c(-c3ccc(C#N)cc3)cncc21 (racemic)", "Measured target": "CYP11B2 (Homo sapiens (Human), UniProt P19099)", "Output unit": "nM", "EC50": 67}
{"Compound": "CCC(=O)NC1CCCc2c(-c3ccc(F)c(C)c3)cncc21 (single isomer, unassigned; (+)) [Example 29]", "Measured target": "CYP11B2 (Homo sapiens (Human), UniProt P19099)", "Output unit": "nM", "EC50": 4}
{"Compound": "CCNC(=O)NC1CCCc2c(-c3ccc(C#N)cc3)cncc21 (racemic)", "Measured target": "CYP11B2 (Homo sapiens (Human), UniProt P19099)", "Output unit": "nM", "EC50": 220}
{"Compound": "CCC(=O)NC1CCCc2c(-c3ccc(C(F)(F)F)c(F)c3)cncc21 (single isomer, unassigned; (-)) [Example 40]", "Measured target": "CYP11B2 (Homo sapiens (Human), UniProt P19099)", "Output unit": "nM", "EC50": 4850}
{"Compound": "O=S(=O)(NC1CCc2c(-c3ccc(C(F)(F)F)c(F)c3)cncc21)C1CC1 (racemic)", "Measured target": "CYP11B2 (Homo sapiens (Human), UniProt P19099)", "Output unit": "nM", "EC50": 301}
{"Compound": "CCC(=O)NC1CCCc2c(-c3ccc(Cl)cc3)cncc21 (single isomer, unassigned; (-)) [Example 25]", "Measured target": "CYP11B2 (Homo sapiens (Human), UniProt P19099)", "Output unit": "nM", "EC50": 467}
{"Compound": "CCC(=O)N[C@@H]1c2cncc(-c3ccc(C(F)(F)F)cc3)c2CC[C@@H]1C (single isomer, unassigned)", "Measured target": "CYP11B2 (Homo sapiens (Human), UniProt P19099)", "Output unit": "nM", "EC50": 658}
